Sourced from the nanobody polyreactivity screen of Harvey et al. (2022)

Test: yeast display, Sf9 membrane polyspecificity reagent, FACS + sequencing; frameworks hold sequencing errors
Parameter Measured: polyreactivity (PSR sort gate)

Problem: Give polyreactivity (PSR sort gate) for the following sequence: QVQLVESGGGLVQAGGSLRLSCAASGRIFQGYAMGWYRQAPGKERELVASIRTGGTTNYADSVKGRFTISRDNAKNTVYLQMNRLKPEDTAVYYCNRGYYSYYGGYYYWGQGTQVTVSS
Result: high polyreactivity

Problem: Give polyreactivity (PSR sort gate) for the following sequence: QVQLVESGGGLVQAGGSLRLSCAASGRTIYRNAMGWYRQAPGKERELVAAITSGGSTNYADSVKGRFTLSRDNAKNTGYLQMNSLKPEDTAVYYCAATRGRYLWYYRYDYWGQGTQVTVSS
Result: high polyreactivity

---

Experiment: yeast display, Sf9 membrane polyspecificity reagent, FACS + sequencing; frameworks hold sequencing errors
Parameter Measured: polyreactivity (PSR sort gate)

Worked set:
Problem: Give polyreactivity (PSR sort gate) for the following sequence: QVQLQESGGGLVQAGGSLRLSCAASGTIFTARFMGWYRQAPGKERELVATITDGGNTNHADSVKGRFTISRDNAKNTVYLQMNSLKPEDAAVDYCAAGEVDNDTLLYWGQGSQVTVSS
Result: low polyreactivity

Problem: Give polyreactivity (PSR sort gate) for the following sequence: QVQLQESGGGLVQACGSLCLICAASSYFSTYYSMGWYRKAPSKGRELVAAIDSGSSTNYADSVEGRFTISRDNAKNTVYLQMISLKPGDTAVYYCAAPWGHLVVHPYRGQGTQVTVSS
Result: high polyreactivity

Problem: Give polyreactivity (PSR sort gate) for the following sequence: QVQLVESGGGLVQAGGSLRLSCAASGSTFYNYAMGWSRQAPGKERELVASITWNGGSTYYADSVKGRFTISRDNAKNTVYLQMNSLKPEDTAVYYCAADWTWTYPYDYWGQGTQVTVSS
Result: low polyreactivity

Problem: Give polyreactivity (PSR sort gate) for the following sequence: QVQLVESGGGLVQAGGSLRLSCAASAFILDWNTIGWYRQAPRKEREFVAAITSRGGDTYYADSVKGRFTISRDNAKNTDYFQMNSMKPEDTAVYYWNKGFKLWPRYGYDYWGLGTQVTVSS
Result: low polyreactivity

Problem: Give polyreactivity (PSR sort gate) for the following sequence: QVQLVESGGGLVQAGGSLRLSCAASGRTFYSNAMGWYRQAPGKERELVATITLSGGSTDYADSVKGRFTISRDNAKNTVYLQMNSLKPEDTAVYYCNADTDVHLIMGYWGQGTQVTVSS
Result: low polyreactivity

---
Problem: Give polyreactivity (PSR sort gate) for the following sequence: QVQLVESGGGLVQAGGSLRLSCAASGRIFATNGMGWYRQATGKERELVATSTRSAGRTYYADSVKGRFTISRDNAKNTVYLQMNSLKPEDTAVYYCAADGYSTAVDDTVRYIVEYEYWGQGTQVTVSS
Result: low polyreactivity

Problem: Give polyreactivity (PSR sort gate) for the following sequence: QVQLVESGGGLVQAGGSLRLTCAASGRILDRYVMGWYRQAPGKERELVAAISQSGRGTYYADSVKGRFTISRDNAKNTVYLQMNSLKPEVTAVYYCAARGTGYHGYGYWGQGSQVTVSS
Result: high polyreactivity

Problem: Give polyreactivity (PSR sort gate) for the following sequence: QVQLVETGGGLVQAGGSLRLSCAASGFTCYRNAIGWYRQAPRKDREIVAAITSDGITYYADSVKGRFTMSRDNAKNTVYLQMNSLKPEDTAVYYCAADVQADLYSYEYDYWGQGTQVTVSS
Result: low polyreactivity

Problem: Give polyreactivity (PSR sort gate) for the following sequence: QVQLVESGGGLVQAGGSLRLSCAASGSTFVYNAMGWYRQAPGKERELVAGISSSGGRTYYADSVKGRFTISRDNAKNTVYLQMNSLKPEDTAVYYCNVVTYRRFDYWGQGTQVTVSS
Result: low polyreactivity

Problem: Give polyreactivity (PSR sort gate) for the following sequence: QVQLLESGGGLVQAGGSLRITCAASGFTFAVYAMGWYRQAPGKERELVAAISRSGTRTYYADSVKGRFTISRDNAKNTVYLLMNSLKPEDTAVYYCAADKYRHGYDYWGQGTQVTVSS
Result: low polyreactivity

Problem: Give polyreactivity (PSR sort gate) for the following sequence: QVQLVESGGGLVQAGGSLRLSWAASGSISGFNAMGWYRQAPGKERELVAAISYSGGRTYYADSVKGRFTISRDNAKNNVYLHMNSLKPEDTAVFYCAADKFMYSKYTVFRDVYWGQGTQVTLSS
Result: high polyreactivity

---

Assay: yeast display, Sf9 membrane polyspecificity reagent, FACS + sequencing; frameworks hold sequencing errors
Parameter Measured: polyreactivity (PSR sort gate)

Worked set:
Problem: Give polyreactivity (PSR sort gate) for the following sequence: QVQLVESGGGLVQAGGSLRLTCAASGSIFVQNAMGWYRQEPGKERELVATISRRGGSTYYADSVKGRFTISRDNAKNTVYLQMNSLKPEDPAVYYSAARKLRTLWGYWGQGTQVTVSS
Result: high polyreactivity

Problem: Give polyreactivity (PSR sort gate) for the following sequence: QVQLVESGGGLVQAGGSLRLSCAASGSIFTANAMGWYRQAPGKERELVAAISRSGGNTYYADSVKGRFTISRDNAKNTVYLQMNSLKPEDTAVYYCAARQKGTGNYWGQGTQVTVSS
Result: high polyreactivity

Problem: Give polyreactivity (PSR sort gate) for the following sequence: QVQLVESGGGLVQAGGSLRLSCAASGSIFRVYVMGWYRQAPGKERELVARIRYRSGRTNYADSVKGRFTISRDNAKNTVYLQMNSLKPEDTAVYYCSADVYWPTAGDYTQKRDYWGLGTQVTVSS
Result: high polyreactivity

Problem: Give polyreactivity (PSR sort gate) for the following sequence: QVQLVESGGGLVQAGGSLRLSCAASGRTFIRYAMGWYRQAPGKERELVAAITQSGGSTYYADSVKGRFTISRDNAKNTVYLQMNSLKPEDTAVYYCAAEYRYPGWSYNYWGQGTQVTVSS
Result: high polyreactivity

Problem: Give polyreactivity (PSR sort gate) for the following sequence: QVQLVESGGGLVQAGGSLRLSCAASGIIFPYYAMGWYRQAPGKESELVAAISQSGGSTYYADSVKGRFTISRDNAKNTVFFQMNSVKPEDTAVYYCDKFIPSYHDGDYWGQGTQVTVSS
Result: low polyreactivity

---
Problem: Give polyreactivity (PSR sort gate) for the following sequence: QVQLVESGGGLVQAGGSLRLSCAASGITFPYYDMGWYRQAAGKERELVAAIDWSGATSYYADSVKGRFTISRDNAKNTVYLQMNSLKPEDTAVYHCNADPPLDLWYVTNRIYHLYDYWGQGTQVTVSS
Result: high polyreactivity

Problem: Give polyreactivity (PSR sort gate) for the following sequence: QVQLVESGGGLVQAGGSLRLSCAASGRIFKSYAMGWYRPAPGKERELVAAINWSGGSTYYADSVKGRFTISRDTAKNTVYLQMNSLKPEDTAVYYCNALYAVRSYDSWGQGTQVTVSS
Result: high polyreactivity

Problem: Give polyreactivity (PSR sort gate) for the following sequence: QVQLVESGGGLVQAGGSLRLSCAASGSTFYEYAMGWYRQAPGKERELVAAITSGGSTYYADSVKGRFTISRDNAKNTVYLQMNSLKPEDTAVYYCAADPRIRRGDRSTHGYDYWGQGTQVTVSS
Result: low polyreactivity

---

Experiment: yeast display, Sf9 membrane polyspecificity reagent, FACS + sequencing; frameworks hold sequencing errors
Parameter Measured: polyreactivity (PSR sort gate)

Problem: Give polyreactivity (PSR sort gate) for the following sequence: QVQLVESGGGLVQAGGSLRLSCAASGSIFDNAMGWYRQAPGKERELVADITNNGGSTYYADSVKGRFTISRDNAKNTVYLQMNSLKPEDTAVYYCAKRRNYWFSFDYWGQGTQVTVSS
Result: low polyreactivity

Problem: Give polyreactivity (PSR sort gate) for the following sequence: QDQLVESGGGLVQAGGSLRLSCAPSGSIFYTNAMGWYRQAPRKERHLVAAISWGGGSTYYADSVKGRFTISRDNAKNTVYLQMNSLKAEDTAVYYCAARYYVYQQGFRSHVTKHYDYWGQGTQVTVSS
Result: low polyreactivity

---

Assay: yeast display, Sf9 membrane polyspecificity reagent, FACS + sequencing; frameworks hold sequencing errors
Parameter Measured: polyreactivity (PSR sort gate)

Worked set:
Problem: Give polyreactivity (PSR sort gate) for the following sequence: QVQLVESGGGLVQAGGSLRLSCAAYGITFVPNAMGWYRQAPGKERELVAAITSGDSTNYADSVKGRFTISRDNAKNTVYLQMNSLKPDDTAVYYCAADSWAQRPNQGRVSLHYYWGQCTQVTVSS
Result: low polyreactivity

Problem: Give polyreactivity (PSR sort gate) for the following sequence: QVQLVESGGGLVQAGGSLRLSCAASGSTFWPYAMGWYRQAPGKERELVAAIRVIGGSKYYADSVKGRFTISRDNAKNTVYLQMNSLKPEDTAVYYCNAYRPGGARFYARYRYDYWGQGTQVTVSS
Result: low polyreactivity

Problem: Give polyreactivity (PSR sort gate) for the following sequence: QVQLVESVVGLVQAGGSLRVSCAAYGRTFWYYPMGWYRQAPGKERELVAGITFTGGRTYYADSVKGRFTISRDNAKHTVYLQMNSLKPEDTAVYYCAAAGLVVGRKDRDGYWGLGTQVTVSS
Result: low polyreactivity

Problem: Give polyreactivity (PSR sort gate) for the following sequence: QVQLAESGGCLVQAGGRLRLSCAASGSTFPHYAMGWYRQAPGKERELVAAISVRGGRTYYADSVKGRFTISRDNAKNNDSLQMNSLKPEDTAVYYCNKYYDVTKYGYWGQGTQVTVSS
Result: high polyreactivity

Problem: Give polyreactivity (PSR sort gate) for the following sequence: QDQLVESGGGLVQAGGILRLSCAASGSTFFHYAMGWYRQAPGQEREFVAANDSNGGSTYYADSVKGRFSISRDNAKNTVYLQMTCLKPEETAVNYCAADDLAEFEYDYWGQGTQVTVSS
Result: low polyreactivity

---
Problem: Give polyreactivity (PSR sort gate) for the following sequence: QVQLVESGGGLVQAGGRLRLSCAPSGTTFNPYTMGLYRQAPGKEGELVATITRIGGSTYYADSVKGRFTISRDNAKNTVYLQMNSLKPEDTAVYYCAADHYRSVRWRSNYTYRVNYWGQGTQVTVSS
Result: high polyreactivity

Problem: Give polyreactivity (PSR sort gate) for the following sequence: QVQLVESGGGLVQAGGSLRLSCAASGTTFSGNAMGWYRQAPGKERELVAAITRSGSRTYYADSVKGRFTISRDNAKNTVYLQMHSLKPEDTAVYYCAKVGRTGDDYYYWGQGTQVTVSS
Result: high polyreactivity

Problem: Give polyreactivity (PSR sort gate) for the following sequence: QVQLVESGGGLVQAGGSLRLSCAASGRIFRRYAMGWYRQAPGKERELVAAITSGGSTYADSVKGRFTISRDNAKNTVYLQMNSLKPEDTAVYYCAADDAQGFDYWGQGTQVTVSS
Result: high polyreactivity

Problem: Give polyreactivity (PSR sort gate) for the following sequence: QDQLVESRGDLVQAGGSLRLSCAASGSIFYDYAMRWYRQAPGKERELVAASDSGRNTTYADSVKGRFTISRDNAKKTVYFQMNSLKPEATAVYYCKTDPGWFDDSPPDPYIYGGYDYWGQGTQVTVSS
Result: high polyreactivity

Problem: Give polyreactivity (PSR sort gate) for the following sequence: QVQLVESGGGLVQAGGSLRLSCAASGRIFGDYGMGWYRQAPGKERELVAAITDRGGTTYYADSVKGRFTISRDNAKNTVYLQMNSLKPEDTAVYYCNARQSDIFDYDYWGQGTQVTVSS
Result: low polyreactivity

Problem: Give polyreactivity (PSR sort gate) for the following sequence: QVQLVESGGGLVQAGGSLRLSCAASGGIFSYAMGWYRQAPGKERELVAAISSGGSTYYADSVKGRFTISRDNAKNTVYLQMNSLKPEDTAVYYCAADGNGVDYDYWGQGTQVTVSS
Result: low polyreactivity

Problem: Give polyreactivity (PSR sort gate) for the following sequence: QVQLVESGGGLVQAGGSLRLSCAASGLTFTKYAMGWYRQAPGKERELVAAINRRGGSTYYADSVKGRFTISRDNAKNTVYLQMNSLKPEDTAVYYCAKRKSVRSTPSYEYWGQGTQVTVSS
Result: high polyreactivity

Problem: Give polyreactivity (PSR sort gate) for the following sequence: QVQLVESGGGLVQAGGSLRLSCAASGRIFYAYAMGGYRQAPGKERELVASISGGGSTDYADSVKGRFTISRDNAMNTVYLQMNSLKPEDTAVYDCAAKRISYYSYNFDYWGEGTQVTVSS
Result: high polyreactivity

Problem: Give polyreactivity (PSR sort gate) for the following sequence: QVQLVESGGGLVQAGGSLRLTCAASGNTFYGYAMGWYRQAPGKERELVASITLSGDSTYYADSVKGRFTISRDNAKNTVYLQMNSLKPEDTAVYYCAGVYTYPLGYFHYTYDYWGQVTQVTVSS
Result: low polyreactivity

Problem: Give polyreactivity (PSR sort gate) for the following sequence: QVQIVESGGGLVQAGGSLRLSCAASGRIFDGNALGWYRQAPGKERELVAAISRIGGTYYADSVKGRFTISRDNAKNTVYLQMNRLKPEDTAVYYCAADPSSVGYHVEYDYWGQGTQVTVSS
Result: low polyreactivity

Problem: Give polyreactivity (PSR sort gate) for the following sequence: QVQLVESGGGLVQAGGSLRLSCAASGFTFRRYAMGWYRQAPWKESELVAAITRDGITNYAASVKGRFTLSRDNAKNTVYFQMNILKPEDTAVYYCARRTGRARLDYWGQGTQVSVSS
Result: high polyreactivity

Problem: Give polyreactivity (PSR sort gate) for the following sequence: QVQLVESGGGLVQAGGSLRLSSAASGFIFTDYAMGWYIEAPGKEREFVAAIDWSGGNTYYADSVKGRFTISRDNAKNTVYLQMNSLKPEDTAVYYCAASGSAREYDYWGQGSQVTVSS
Result: low polyreactivity

Problem: Give polyreactivity (PSR sort gate) for the following sequence: QVQLGESGGGLVQAGGSLRLSCAASGSTFAYNERGWYSQAPGHERELVADIRSGGNTNYADSVKGRFTISRDNAKNTVYLQMPSLKPEDTAVYYCATDGYRIDVYHPDYRYDYWGQGTQVTVSS
Result: low polyreactivity
